# Test system: A-431
# TEST PROTOCOL: Antiproliferative activity against human A431 cells at 10 ug/ml after 48 hrs by MTT assay
# Format: cell-based
# MEASUREMENT CONDITIONS: a-431, 48 h
# Activity per entry
// unit must come after the numeric part

Worked examples, 5 compounds total:
O=C1CSc2ccccc2N1Cc1cn(Cc2ccc(Cl)cc2)nn1 :: 40.9%
O=C1CSc2ccccc2N1Cc1cn(Cc2cccc(Cl)c2)nn1 :: -13.7%
O=C1CSc2ccccc2N1Cc1cn(Cc2ccc(Br)cc2)nn1 :: 4%
O=C1CSc2ccccc2N1Cc1cn(Cc2cccc([N+](=O)[O-])c2)nn1 :: 16.5%
O=C1CSc2ccccc2N1Cc1cn(Cc2ccc([N+](=O)[O-])cc2)nn1 :: 12.9%

Turning now to a further compound:
stdin: Find the recorded Activity belonging to `O=C1CSc2ccccc2N1Cc1cn(Cc2ccccc2Cl)nn1` and report it.
stdout: 29.6%

====

# Tested on: A549
# TEST PROTOCOL: Antiproliferative activity against human A549 cells at 3 ug/ml after 48 hrs by MTT assay
# Type: cell-based
# MEASUREMENT CONDITIONS: a549, 48 h
Quick reference for Activity among some molecules
Report as a plain number; the unit % is understood.

Below, each entry is followed by its recorded Activity result.
O=C1CSc2ccccc2N1Cc1cn(Cc2cccc([N+](=O)[O-])c2)nn1 :: -9.71
O=C1CSc2ccccc2N1Cc1cn(Cc2cccc(Cl)c2)nn1 :: 6.38
O=C1CSc2ccccc2N1Cc1cn(Cc2ccc(F)cc2)nn1 :: 12.32
O=C1CSc2ccccc2N1Cc1cn(-c2ccc([N+](=O)[O-])cc2)nn1 :: 33.22

stdin: GET /values?readout=Activity&item= `O=C1CSc2ccccc2N1Cc1cn(Cc2ccccc2Cl)nn1`
stdout: 4.19

stdin: Which Activity is reported for this molecule? `O=C1CSc2ccccc2N1Cc1cn(-c2cccc([N+](=O)[O-])c2)nn1`
stdout: 12.32

stdin: # get_value(readout='Activity', item= `O=C1CSc2ccccc2N1Cc1cn(Cc2ccc(Br)cc2)nn1` )
stdout: -5.96

stdin: # Activity lookup, item `O=C1CSc2ccccc2N1Cc1cn(Cc2ccc(Cl)cc2)nn1`
stdout: 3.6

stdin: Name the recorded Activity for `O=C1CSc2ccccc2N1Cc1cn(Cc2ccc([N+](=O)[O-])cc2)nn1` .
stdout: 0

stdin: Fill in the blank: the reported Activity of `O=C1CSc2ccccc2N1Cc1cn(Cc2ccccc2)nn1` is ____.
stdout: -7.85

====

# System: A549
# TEST PROTOCOL: Antiproliferative activity against human A549 cells at 10 ug/ml after 48 hrs by MTT assay
# Format: cell-based
# MEASUREMENT CONDITIONS: a549, 48 h
Listed below: Activity values for each entry.
Provide only the numeric value, understood in %.

Please review the following examples before continuing.
O=C1CSc2ccccc2N1Cc1cn(Cc2ccc(Br)cc2)nn1 :: -1.37
O=C1CSc2ccccc2N1Cc1cn(Cc2ccc(F)cc2)nn1 :: 4.1
O=C1CSc2ccccc2N1Cc1cn(Cc2ccc(Cl)cc2)nn1 :: 4.35
O=C1CSc2ccccc2N1Cc1cn(Cc2cccc([N+](=O)[O-])c2)nn1 :: 0
O=C1CSc2ccccc2N1Cc1cn(Cc2ccc([N+](=O)[O-])cc2)nn1 :: 17.56
O=C1CSc2ccccc2N1Cc1cn(Cc2ccccc2Cl)nn1 :: -8.41
O=C1CSc2ccccc2N1Cc1cn(-c2ccc([N+](=O)[O-])cc2)nn1 :: 24.73
O=C1CSc2ccccc2N1Cc1cn(Cc2cccc(Cl)c2)nn1 :: 3.31
O=C1CSc2ccccc2N1Cc1cn(-c2cccc([N+](=O)[O-])c2)nn1 :: 0.19

Below: the item to evaluate.
stdin: Using the record for `O=C1CSc2ccccc2N1Cc1cn(Cc2ccccc2)nn1` , report its Activity.
stdout: -9.82
